Recorded AUC of dose-response viability curve by entry
tested on: ACHN; assay: AUC of dose-response viability curve, drug + dasatinib, normalised to DMSO (arbitrary (AUC of normalised viability)); higher = less growth inhibition; conditions: treatment: drug + dasatinib (fixed dose, not stated); 5 days
# respond with the number and nothing more

Answered cases to consult:
Molecule	Value
COc1cc2nccc(Oc3ccc(NC(=O)Nc4cc(C)on4)c(Cl)c3)c2cc1OC [Tivozanib (AV-951)] + Cc1nc(Nc2ncc(C(=O)Nc3c(C)cccc3Cl)s2)cc(N2CCN(CCO)CC2)n1	1.95
OCCn1cc(-c2ccc3c(c2)CC/C3=N\O)c(-c2ccncc2)n1 [GDC-0879] + Cc1nc(Nc2ncc(C(=O)Nc3c(C)cccc3Cl)s2)cc(N2CCN(CCO)CC2)n1	2.12
CNC(=O)c1nn(C)c2c1C(C)(C)Cc1cnc(Nc3ccc(N4CCN(C)CC4)cc3)nc1-2 + Cc1nc(Nc2ncc(C(=O)Nc3c(C)cccc3Cl)s2)cc(N2CCN(CCO)CC2)n1	1.03
COc1cc2c(Oc3ccc(NC(=O)C4(C(=O)Nc5ccc(F)cc5)CC4)cc3F)ccnc2cc1OCCCN1CCOCC1 + Cc1nc(Nc2ncc(C(=O)Nc3c(C)cccc3Cl)s2)cc(N2CCN(CCO)CC2)n1	1.36

Q: Can you share its AUC of dose-response viability curve? I mean this molecule: CC1(C)CCC(CN2CCN(c3ccc(C(=O)NS(=O)(=O)c4ccc(NCC5CCOCC5)c([N+](=O)[O-])c4)c(Oc4cnc5[nH]ccc5c4)c3)CC2)=C(c2ccc(Cl)cc2)C1 [ABT-199 (GDC-0199 )] + Cc1nc(Nc2ncc(C(=O)Nc3c(C)cccc3Cl)s2)cc(N2CCN(CCO)CC2)n1
Ans: 2.01

Sourced from the supplement of paper PMC8149375
